IC50: recorded values
- Test system: K562 (chronic myelogenous leukaemia)
- test: Cytotoxicity assay, K562 tumor cells
- Assay type: cell-based
- condition-parameters: Homo sapiens, 96 hours treatment
attribute-measured: IC50

1. COc1cc(OC)c(/C=C/S(=O)(=O)Cc2ccc(OC)c(NC(=O)/C=C\C(=O)O)c2)c(OC)c1: 2 µM
2. COc1cc(OC)c(/C=C/S(=O)(=O)Cc2ccc(OC)c(N/C=C\C(C)=O)c2)c(OC)c1: 0.1 µM
3. COc1cc(OC)c(/C=C/S(=O)(=O)Cc2ccc(OC)c(NC(=O)/C=C/C(=O)O)c2)c(OC)c1: 2 µM
4. C#CCN(CC#C)c1cc(CS(=O)(=O)/C=C/c2c(OC)cc(OC)cc2OC)ccc1OC: 2.5 µM
5. CCOC(=O)C(=CNc1cc(CS(=O)(=O)/C=C/c2c(OC)cc(OC)cc2OC)ccc1OC)C(=O)OCC: 2 µM
6. CCOC(=O)/C=C\Nc1cc(CS(=O)(=O)/C=C/c2c(OC)cc(OC)cc2OC)ccc1OC: 0.002 µM
